Test system: Staphylococcus aureus
Experiment: Antimicrobial activity against Staphylococcus aureus Sau 1862 assessed as inhibition of bacterial growth incubated for 16 to 18 hrs by broth micro dilution technique
Format: functional
Conditions: time 16-18 hrs
Numbered stars: 1 amine (or outer) side, 2 acyl side, 3 side chain; on linkers, the order of the positions; unused ones are H or OH. Bridge positions count the residues as written; N and C are the ends. Square brackets hold non-standard residues; d marks the D form. Peptide text beside a SMILES is read from it. I, II: the chains in the order shown. Actinocin(1to9) = Cc1c2oc3c(C)ccc(C(=O)[*:2])c3nc-2c(C(=O)[*:1])c(N)c1=O; NMeV = CN[C@H](C(=O)O)C(C)C; Sar = CNCC(=O)O
Reported endpoint: MIC (µg/mL)
Hi! Could you send only the number? It should be in µg/mL, unit omitted.

Examples with their reported MIC follow.
Cc1c2oc3c(C)ccc(C(=O)N[C@@H]4C(=O)N[C@H](C(C)C)C(=O)N5CCC[C@H]5C(=O)N(C)CC(=O)N(C)[C@@H](C(C)C)C(=O)O[C@@H]4C)c3nc-2c(C(=O)N[C@@H]2C(=O)N[C@H](C(C)C)C(=O)N3CCC[C@H]3C(=O)N(C)CC(=O)N(C)[C@@H](C(C)C)C(=O)O[C@@H]2C)c(N)c1=O [DACTINOMYCIN] (I: T[dV]P[Sar][NMeV] / II: T[dV]P[Sar][NMeV]; ester I:1-I:C, II:1-II:C; linker I:N-II:N via Actinocin(1to9)) = 0.06
CC1(C)S[C@@H]2[C@H](NC(=O)[C@H](N)c3ccccc3)C(=O)N2[C@H]1C(=O)O [AMPICILLIN] = 8

Entry under review: `CC(C)[C@H]1C(=O)O[C@H](C)[C@H](NC(=O)c2c3nc4c(C(=O)N[C@@H]5C(=O)N[C@H](C(C)C)C(=O)N6CCC[C@H]6C(=O)N(C)CC(=O)N(C)[C@@H](C(C)C)C(=O)O[C@@H]5C)ccc(Cl)c4oc-3c(Cl)c(=O)c2N)C(=O)N[C@H](C(C)C)C(=O)N2CCC[C@H]2C(=O)N(C)CC(=O)N1C` . Reported MIC?
16
